# Test system: CP325
# assayRemarks: qHTS profiling for inhibitors of Plasmodium falciparum proliferation (AID 504749); note: nearly all actives have a fitted effect of over 60% in size
# runConditions: P. falciparum in erythrocytes, SYBR Green DNA, 72 h; series mostly up to 28.7 µM
Results filed as inconclusive are left out. Calls of active or inactive are those of the source. Calls come from the whole dose curve; as a rule, active = well fitted inhibition curve with a large enough effect; inconclusive = small, poorly fitted or top-dose-only effect; inactive = flat fitted curve, though single readings scatter.
Labels: active, inactive

>>> classlabel("CNC(=O)Oc1ccccc1C(=O)Nc1ccccc1")
"inactive"
>>> classlabel("c1cc2c(c(NC3=NCCN3)c1)CCCC2")
"inactive"
>>> classlabel("OC(c1ccccc1)(c1ccccc1)C1CN2CCC1CC2 (centres undefined)")
"inactive"
>>> classlabel("CN1C2CCC1CC(OC(c1ccccc1)c1ccc(Cl)cc1)C2 (centres undefined)")
"active"
>>> classlabel("C=CCN=C=S")
"inactive"
>>> classlabel("O=C(NCNC(=O)NC1C(=O)NC(=O)N1CO)NC1C(=O)NC(=O)N1CO (centres undefined)")
"inactive"
>>> classlabel("C[CH2][Hg][S]c1ccccc1C(=O)O")
"active"
>>> classlabel("COC([CH2][Hg])CNC(=O)c1ccccc1OCC(=O)O (centres undefined)")
"inactive"
>>> classlabel("N#CN")
"inactive"
>>> classlabel("CCCC(C)(COC(N)=O)COC(=O)NC1CC1 (centres undefined)")
"inactive"
>>> classlabel("O=c1c2ccccc2[se]n1-c1ccccc1")
"inactive"
>>> classlabel("CCC1(c2ccccc2)C(=O)NC(=O)N(C(=O)c2ccccc2)C1=O (centres undefined)")
"inactive"
>>> classlabel("ClCC1CO1 (centres undefined)")
"inactive"
>>> classlabel("Cc1sc2ccccc2c1CC1=NCCN1")
"inactive"
>>> classlabel("O[C@H]1[C@H]2[C@H](O)CCCN2C[C@H]1O")
"inactive"
>>> classlabel("CC(=O)OC1CN2CCC1CC2 (centres undefined)")
"inactive"
>>> classlabel("c1ccc2cc(CC3=NCCN3)ccc2c1")
"inactive"
>>> classlabel("C[C@H]1CCC[C@H](O)CCCCCc2cc(O)cc(O)c2C(=O)O1")
"inactive"
>>> classlabel("COc1ccc(OC)c(C(O)C(C)N)c1 (centres undefined)")
"inactive"
>>> classlabel("ClC(Cl)(Cl)Cl")
"inactive"
>>> classlabel("NCC(O)c1cccc(O)c1 (centres undefined)")
"inactive"
>>> classlabel("F/C(COc1ccc2c(c1)[nH]c1ccccc12)=C1/CN2CCC1CC2")
"inactive"
>>> classlabel("N#CC1(N2CCCCC2)CCCCC1")
"inactive"
>>> classlabel("ClC1C(Cl)C(Cl)C(Cl)C(Cl)C1Cl (centres undefined)")
"inactive"
>>> classlabel("C=CCN1CCC23c4c5ccc(O)c4O[C@H]2C(=O)CC[C@@]3(O)C1C5 (some centres undefined)")
"inactive"
>>> classlabel("Clc1ccc(Cl)cc1")
"inactive"
>>> classlabel("O=P(O)(O)C(Cl)(Cl)P(=O)(O)O")
"inactive"
>>> classlabel("COc1ccc2c3c1O[C@H]1C(=O)CC[C@H]4[C@@H](C2)N(C)CC[C@]314")
"inactive"
>>> classlabel("O=[N+]([O-])C(Br)(CO)CO")
"inactive"
>>> classlabel("CNC(C)C(O)c1ccc(O)cc1 (centres undefined)")
"inactive"
>>> classlabel("O=C1CN=C(c2ccccc2)c2cc(Cl)ccc2N1CC1CC1")
"inactive"
>>> classlabel("CNC1(c2ccccc2Cl)CCCCC1=O (centres undefined)")
"inactive"
>>> classlabel("CCC1(c2ccccc2)C(=O)NC(=O)NC1=O")
"inactive"
>>> classlabel("O=C(NC(=O)c1c(F)cccc1F)Nc1ccc(Cl)c(Oc2ncc(C(F)(F)F)cc2Cl)c1")
"inactive"
>>> classlabel("O=C/C=C/c1ccccc1")
"inactive"
>>> classlabel("CCCCCCCCOC(=O)c1ccccc1C(=O)OCCCCCCCC")
"inactive"
>>> classlabel("CNC(=O)OCC[N+](C)(C)C")
"inactive"
>>> classlabel("COCC(C)N(C(=O)CCl)c1c(C)csc1C (centres undefined)")
"inactive"
>>> classlabel("CC(Cc1ccccc1)NC=O (centres undefined)")
"inactive"
>>> classlabel("[O]=[Cd]")
"inactive"
>>> classlabel("C[C@]12CCC(=O)C[C@@H]1CC[C@@H]1[C@@H]2CC[C@]2(C)[C@@H](O)CC[C@@H]12")
"inactive"
>>> classlabel("CC(C)Nc1ccc(Nc2ccccc2)cc1")
"active"
>>> classlabel("O=C1CC[C@@]2(O)C3Cc4ccc(O)c5c4C2(CCN3CC2CC2)[C@H]1O5 (some centres undefined)")
"inactive"
>>> classlabel("O=C(OCCN1CCCCC1)C(O)(c1ccccc1)c1ccccc1")
"inactive"
>>> classlabel("Clc1ccccc1Cl")
"inactive"
>>> classlabel("C#CC(C)(O)CC (centres undefined)")
"inactive"
>>> classlabel("CCC(=O)O[C@@](Cc1ccccc1)(c1ccccc1)[C@@H](C)CN(C)C")
"inactive"
>>> classlabel("Oc1cccc[c]1[Hg][Cl]")
"active"
>>> classlabel("CC(C)(O)C1C2OC(=O)C1C1(O)CC3OC34C(=O)OC2C14C (centres undefined)")
"inactive"
>>> classlabel("O=[N+]([O-])c1cc(I)c(O)c(I)c1")
"inactive"
>>> classlabel("CCCCCCCCCC(=O)O[C@H]1CC[C@H]2[C@@H]3CCC4=CC(=O)CC[C@]4(C)[C@H]3CC[C@]12C")
"inactive"
>>> classlabel("C=CCN1CC[C@]23c4c5ccc(O)c4O[C@H]2[C@@H](O)C=C[C@H]3[C@H]1C5")
"inactive"
>>> classlabel("C[N+]1(C)CCCCC1COC(=O)C(O)(c1ccccc1)c1ccccc1 (centres undefined)")
"inactive"
>>> classlabel("O=S(=O)(O)c1cc(O)ccc1O")
"inactive"
